Values were extracted from patent US6046228A.

System: HIV-1RF
Assay: XTT cytoprotection (cytopathicity) anti-HIV assay, CEM-SS cells
Assay type: cell-based
Conditions: Human immunodeficiency virus 1, CEM-SS, Table 5; read-out: EC50 Duplicates
pEC50: −log10 of the molar value.
Recorded endpoint: pEC50

> print(dat)
                                   compound  meas.value
1  O=S1(=O)C[C@H](O)[C@H](O)CS1 (relative stereo) [NSC 624151, cis-1,1-dioxo[1,2]dithiane-4,5-diol]        5.02
2  Cc1cn([C@H]2C[C@H](N=[N+]=[N-])[C@@H](CO)O2)c(=O)[nH]c1=O        8.27
